All values here come from patent US8357676B2.

Below is a list of entries, each paired with its recorded solubility value.
test: Equilibrium solubility in SIF; assay type: physicochemical; conditions: simulated intestinal fluid (SIF), 37 °C, pH 6.8, fassgf or other biorelevant, thermodynamic from solid; read-out: Eq. Solubility of active
assay endpoint: solubility (µg/mL)

# compound, value unit, quantitative result
records = [
    ("CO[C@H]1/C=C\\C=C(/C)C(=O)NC2=CC(=O)C(NC(C)=O)=C(C[C@@H](C)C[C@H](OC)[C@H](O)[C@@H](C)/C=C(\\C)[C@@H]1OC(N)=O)C2=O", "µg/mL", 350),
    ("CO[C@H]1/C=C\\C=C(/C)C(=O)NC2=CC(=O)C(NCc3ccccc3)=C(C[C@@H](C)C[C@H](OC)[C@H](O)[C@@H](C)/C=C(\\C)[C@@H]1OC(N)=O)C2=O", "µg/mL", 15),
    ("CO[C@H]1/C=C\\C=C(/C)C(=O)NC2=CC(=O)C(NCC3CC3)=C(C[C@@H](C)C[C@H](OC)[C@H](O)[C@@H](C)/C=C(\\C)[C@@H]1OC(N)=O)C2=O", "µg/mL", 34),
    ("CO[C@H]1C[C@H](C)CC2=C(N)C(=O)C=C(NC(=O)/C(C)=C/C=C\\[C@H](OC)[C@@H](OC(N)=O)/C(C)=C/[C@H](C)C1OC(C)=O)C2=O (stereo partly drawn)", "µg/mL", 88),
    ("CO[C@H]1/C=C\\C=C(/C)C(=O)NC2=CC(=O)C(NCCF)=C(C[C@@H](C)C[C@H](OC)[C@H](O)[C@@H](C)/C=C(\\C)[C@@H]1OC(N)=O)C2=O", "µg/mL", 40),
    ("CO[C@H]1/C=C\\C=C(/C)C(=O)NC2=CC(=O)C(N3CCC3)=C(C[C@@H](C)C[C@H](OC)[C@H](O)[C@@H](C)/C=C(\\C)[C@@H]1OC(N)=O)C2=O", "µg/mL", 140),
]

====

test: In vitro dissolution of amorphous solid dispersions in simulated intestinal fluid at 37° C.; assay type: physicochemical; settings: 12% load analog in PVP K-30 dispersion, SIF 37° C., t = 5 min; the values are: supersaturated concentration in SIF at 5 min
assay endpoint: Supersaturated concentration in SIF at 5 min (mg/mL)

# smiles data, quantitative result
records = [
    ("CO[C@H]1/C=C\\C=C(/C)C(=O)NC2=CC(=O)C(NCc3ccccc3)=C(C[C@@H](C)C[C@H](OC)[C@H](O)[C@@H](C)/C=C(\\C)[C@@H]1OC(N)=O)C2=O", 0.165),
]
